The reported measurements were obtained from ChEMBL document CHEMBL3046961.

# method-summary: Biodistribution in Gossypium hirsutum (cotton) plant leaf at 500 mg/L after 24 hr
# Assay type: ADME, organism-based
# test-parameters: read-out: Drug uptake
readout-kind: concentration at 24 h (ng/g)
Numbers only, in ng/g.

For reference, reported concentration at 24 h for CCCON=C1CCCCCCCCCCC(=O)NCCC1 stands at 890

====

# method-summary: Biodistribution in Gossypium hirsutum (cotton) plant stem at 500 mg/L after 48 hr
# Assay type: ADME, organism-based
# test-parameters: read-out: Drug uptake
readout-kind: concentration at 48 h (ng/g)
One number for each entry, in ng/g.

Just so you know, measured concentration at 48 h for CCCON=C1CCCCCCCCCCC(=O)NCCC1 came out at 5120

====

# method-summary: Biodistribution in Gossypium hirsutum (cotton) plant root at 500 mg/L after 8 hr
# Format: ADME, organism-based
# test-parameters: read-out: Drug uptake
readout-kind: concentration at 8 h (ng/g)
Give bare numbers, in ng/g.

Per the record, CCCON=C1CCCCCCCCCCC(=O)NCCC1 has concentration at 8 h of 66700
